- System under test: vanilloid receptor 1 (VR1/TRPV1 receptor) (Homo sapiens)
- Construct: expressed in transfected cells; host or cells: CHO K1 cells (ECACC), stably transfected
- Method notes: VR1/TRPV1 receptor affinity, capsaicin stimulus (human)
- Type: cell-based, human being
- Run parameters: Tables 8-12, read-out: (f) Ki (human being) [nM] Cap
So basically, the class depends on measured Ki, and the ranges are I: < 6 nM; II: ≥ 6 nM and < 40 nM; III: ≥ 40 nM

Worked set:
| Compound | Answer label |
| --- | --- |
| CCS(=O)(=O)NCc1ccc(NC(=O)NCc2cc(C(C)(C)C)nn2-c2cccc(Cl)c2)cc1 | II |
| CCC(=O)c1ccc(C(C)C(=O)NCc2cc(C(F)(F)F)nn2-c2ccc(F)c(F)c2)cc1F (centres unmarked) | III |
| CC(C(=O)NCc1cc(C(F)(F)F)nn1-c1cccc(Cl)c1)c1ccc(CNS(N)(=O)=O)cc1 (centres unmarked) | I |

Hey, which category is Cc1cccc(-n2nc(C(C)(C)C)cc2CNC(=O)C(C)c2ccc(CNS(C)(=O)=O)c(F)c2)c1 (centres unmarked) in, do you know?
II

Hey, which category is CC(C(=O)NCc1cc(C(C)(C)C)nn1-c1ccc(F)c(Cl)c1)c1ccc(N2CCCS2(=O)=O)c(F)c1 (centres unmarked) in, do you know?
III

Hey, which category is CS(=O)(=O)NCc1ccc(CC(=O)NCc2cc(C(F)(F)F)nn2-c2cccc(Cl)c2)cc1F in, do you know?
II

Hey, which category is CCC(=O)c1ccc(C(C)C(=O)NCc2cc(C(F)(F)F)nn2-c2cccc(OC)c2)cc1F (centres unmarked) [Example E2] in, do you know?
II

Hey, which category is CC(C(=O)NCc1cc(C(C)(C)C)nn1-c1cccc(Cl)c1)c1ccc(CN(C)C)c(F)c1 (centres unmarked) in, do you know?
III

Hey, which category is CCS(=O)(=O)NCc1ccc(NC(=O)NCc2cc(C(F)(F)F)nn2-c2cccc(C)c2)cc1 in, do you know?
III

Hey, which category is CCS(=O)(=O)NCc1ccc(C(C)C(=O)NCc2cc(C(C)(C)C)nn2-c2cccc(Cl)c2)cc1F (centres unmarked) in, do you know?
I

Hey, which category is CS(=O)(=O)NCc1ccc(CC(=O)NCc2cc(C(F)(F)F)nn2-c2cccc(F)c2)cc1F in, do you know?
III

Hey, which category is CC(C(=O)NCc1cc(C(C)(C)C)nn1-c1cccc(Cl)c1)c1ccc(CNS(N)(=O)=O)cc1 (centres unmarked) in, do you know?
I

Hey, which category is CC(C(=O)NCc1cc(C(C)(C)C)nn1-c1cccc(C(F)(F)F)c1)c1ccc(CNS(C)(=O)=O)c(F)c1 (centres unmarked) in, do you know?
I

Hey, which category is NS(=O)(=O)NCc1ccc(NC(=O)NCc2cc(C3CC3)nn2-c2cccc(Cl)c2)cc1 in, do you know?
II

Hey, which category is CC(C)(C)c1cc(CNC(=O)Nc2ccc(CNS(N)(=O)=O)cc2)n(-c2cccc(F)c2)n1 in, do you know?
III

Hey, which category is COc1cc(C(C)C(=O)NCc2cc(C(F)(F)F)nn2-c2cccc(Cl)c2)ccc1CNS(C)(=O)=O (centres unmarked) in, do you know?
II

Hey, which category is CC(C(=O)NCc1cc(C(F)(F)F)nn1-c1cccc(Cl)c1)c1ccc(CO)c(Cl)c1 (centres unmarked) in, do you know?
I

====

- System under test: vanilloid receptor 1 (VR1/TRPV1 receptor) (Homo sapiens, UniProt Q8NER1)
- Construct: expressed in transfected cells; host or cells: CHO K1 cells (ECACC), stably transfected
- Sequence (Q8NER1 whole entry): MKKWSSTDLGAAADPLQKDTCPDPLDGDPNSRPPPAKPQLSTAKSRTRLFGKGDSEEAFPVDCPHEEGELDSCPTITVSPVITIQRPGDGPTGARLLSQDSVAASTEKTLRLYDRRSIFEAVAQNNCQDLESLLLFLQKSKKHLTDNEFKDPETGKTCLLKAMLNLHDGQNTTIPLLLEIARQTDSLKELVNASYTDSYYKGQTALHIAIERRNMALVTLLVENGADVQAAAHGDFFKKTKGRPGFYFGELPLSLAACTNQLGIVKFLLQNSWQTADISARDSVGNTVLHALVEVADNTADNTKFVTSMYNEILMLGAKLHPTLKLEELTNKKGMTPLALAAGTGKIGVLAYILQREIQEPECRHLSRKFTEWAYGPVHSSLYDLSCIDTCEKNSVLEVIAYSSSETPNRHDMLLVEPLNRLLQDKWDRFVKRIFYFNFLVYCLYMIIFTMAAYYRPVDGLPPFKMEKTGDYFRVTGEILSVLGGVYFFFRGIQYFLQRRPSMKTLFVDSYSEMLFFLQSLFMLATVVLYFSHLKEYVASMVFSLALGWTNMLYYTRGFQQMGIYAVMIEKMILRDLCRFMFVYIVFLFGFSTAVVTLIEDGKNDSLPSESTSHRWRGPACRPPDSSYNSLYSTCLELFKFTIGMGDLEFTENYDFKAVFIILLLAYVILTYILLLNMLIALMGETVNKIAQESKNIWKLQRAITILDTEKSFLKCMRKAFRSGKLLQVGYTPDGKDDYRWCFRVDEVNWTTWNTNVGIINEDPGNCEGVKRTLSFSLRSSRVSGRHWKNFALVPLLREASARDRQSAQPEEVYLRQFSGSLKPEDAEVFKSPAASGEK
- Method notes: VR1/TRPV1 receptor affinity, capsaicin stimulus (human)
- Format: cell-based, human being
- Run parameters: Tables 8-12, read-out: (f) Ki (human being) [nM] Cap
What Ki was measured for each of the following?
Numbers only, in nM.

Answer for every listed entry: what is its Ki? The entries follow.
1. COc1cc(NC(=O)NCc2cc(C(F)(F)F)nn2-c2cccc(Cl)c2)ccc1CNS(C)(=O)=O
2. CC(C(=O)NCc1cc(C(F)(F)F)nn1-c1ccc(F)c(F)c1)c1ccc(CNS(C)(=O)=O)c(F)c1 (stereo not drawn)
3. COc1cccc(-n2nc(C(F)(F)F)cc2CNC(=O)C(C)c2ccc(CNS(C)(=O)=O)c(F)c2)c1 (stereo not drawn)

1: 41; 2: 6; 3: 6

Reference for the values: patent US9624209B2
